Entry source: ChEMBL document CHEMBL3588760

TARGET OF ASSAY: Tyrosinase (Agaricus bisporus) (UniProt O42713)
Sequence (O42713 whole entry): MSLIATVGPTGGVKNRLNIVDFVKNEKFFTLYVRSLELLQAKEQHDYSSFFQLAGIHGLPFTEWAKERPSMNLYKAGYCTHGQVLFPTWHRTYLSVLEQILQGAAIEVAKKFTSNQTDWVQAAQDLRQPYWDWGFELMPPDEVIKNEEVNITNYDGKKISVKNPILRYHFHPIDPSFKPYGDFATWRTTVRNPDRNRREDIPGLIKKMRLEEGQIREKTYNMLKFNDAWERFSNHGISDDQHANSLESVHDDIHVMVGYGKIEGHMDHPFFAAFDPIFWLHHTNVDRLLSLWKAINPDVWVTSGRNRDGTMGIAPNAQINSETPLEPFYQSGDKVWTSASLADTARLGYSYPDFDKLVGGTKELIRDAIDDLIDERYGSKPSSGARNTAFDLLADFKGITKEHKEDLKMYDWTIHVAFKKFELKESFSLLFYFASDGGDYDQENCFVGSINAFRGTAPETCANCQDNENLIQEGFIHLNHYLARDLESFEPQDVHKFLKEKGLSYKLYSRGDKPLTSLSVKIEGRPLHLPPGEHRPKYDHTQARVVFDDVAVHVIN
ASSAY TEXT: Inhibition of mushroom tyrosinase using L-DOPA as substrate assessed as dopaquinone production at 100 uM after 5 mins by microplate reader analysis relative to control
Use 5% as the dividing line for inhibition, with the line itself on the 1 (yes) side and lower values as 0 (no).

- O=c1c(O)c(-c2ccc(O[C@@H]3O[C@H](CO)[C@@H](O)[C@H](O)[C@H]3O)c(O)c2)oc2cc(O)cc(O)c12 [SPIRAEOSIDE]: 1 (yes)
- O=c1cc(-c2ccc(O)c(O)c2)oc2cc(O)cc(O)c12: 1 (yes)
- O=C1CC(c2ccc(O)c(O)c2)Oc2cc(O)cc(O)c21 (racemic): 0 (no)
- COc1ccc(-c2cc(=O)c3c(O)cc(O[C@@H]4O[C@H](CO)[C@@H](O)[C@H](O)[C@H]4O)cc3o2)cc1: 1 (yes)
- O=c1cc(-c2ccc(O[C@@H]3O[C@H](CO)[C@@H](O)[C@H](O)[C@H]3O)c(O)c2)oc2cc(O)cc(O)c12: 0 (no)

====

TARGET OF ASSAY: Plasminogen (Homo sapiens) (UniProt P00747)
Sequence (P00747 97-580 limits assumed): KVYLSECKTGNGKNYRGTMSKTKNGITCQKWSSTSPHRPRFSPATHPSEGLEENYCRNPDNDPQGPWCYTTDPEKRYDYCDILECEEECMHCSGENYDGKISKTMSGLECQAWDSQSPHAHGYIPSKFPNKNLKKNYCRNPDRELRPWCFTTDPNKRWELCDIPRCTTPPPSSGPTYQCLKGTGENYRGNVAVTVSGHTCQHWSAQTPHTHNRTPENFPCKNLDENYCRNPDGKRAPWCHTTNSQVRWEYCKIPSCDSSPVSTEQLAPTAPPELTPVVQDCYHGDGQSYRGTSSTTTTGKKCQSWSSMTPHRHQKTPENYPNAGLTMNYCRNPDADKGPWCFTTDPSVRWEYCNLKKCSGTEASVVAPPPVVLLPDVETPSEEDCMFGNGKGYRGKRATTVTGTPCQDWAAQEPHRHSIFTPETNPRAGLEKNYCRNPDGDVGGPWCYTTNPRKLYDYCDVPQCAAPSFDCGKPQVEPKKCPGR
Sequence (P00747 581-810 limits assumed): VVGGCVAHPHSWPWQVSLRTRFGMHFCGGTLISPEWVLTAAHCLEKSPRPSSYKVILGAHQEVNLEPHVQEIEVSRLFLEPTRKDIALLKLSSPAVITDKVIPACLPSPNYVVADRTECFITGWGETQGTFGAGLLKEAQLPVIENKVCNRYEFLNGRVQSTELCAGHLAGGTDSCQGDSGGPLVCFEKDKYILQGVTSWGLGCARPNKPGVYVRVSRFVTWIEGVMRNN
ASSAY TEXT: Inhibition of plasmin (unknown origin) at 100 uM after 18 hrs by arianor mahogany dye-based fibrin plate assay relative to control
ASSAY METRIC: inhibition (%)

* O=c1c(O)c(-c2ccc(O)c(O)c2)oc2cc(O)cc(O)c12 [QUERCETIN] | 30.2
* O=c1cc(-c2ccc(O)c(O)c2)oc2cc(O[C@@H]3O[C@H](CO)[C@@H](O)[C@H](O)[C@H]3O)cc(O)c12 [GALUTEOLIN] | 61
* NC[C@H]1CC[C@H](C(=O)O)CC1 | 9.5
* COc1ccc(-c2oc3cc(O)cc(O)c3c(=O)c2O[C@@H]2O[C@H](CO)[C@@H](O)[C@H](O)[C@H]2O)cc1O | 33.1

====

ASSAY TEXT: Downregulation of tyrosinase mRNA expression in theophylline-stimulated mouse B16-4A5 cells assessed as ratio of tyrosinase mRNA to beta-actin mRNA level at 30 uM after 72 hrs by qPCR analysis
Assay type: functional, cell-based
ASSAY METRIC: Ratio

* O=c1c(O)c(-c2ccc(O)c(O)c2)oc2cc(O)cc(O)c12 | 0.45
* O=C1CC(c2ccc(O)c(O)c2)Oc2cc(O)cc(O)c21 (racemic) | 0.38
* COc1ccc(-c2cc(=O)c3c(O)cc(O)cc3o2)cc1O[C@@H]1O[C@H](CO)[C@@H](O)[C@H](O)[C@H]1O | 1.09
* O=c1cc(-c2ccc(O)c(O)c2)oc2cc(O)cc(O)c12 | 0.46

====

ASSAY TEXT: Cytotoxicity against mouse B16-4A5 cells assessed as cell viability at 30 uM after 70 hrs by WST-8 assay relative to control
Type: cell-based
STUDY CONDITIONS: read-out: Activity
// reported viability at 70 h, 30 µM for each item listed
ASSAY METRIC: viability at 70 h, 30 µM

* O=c1cc(-c2ccc(O)c(O)c2)oc2cc(O[C@@H]3O[C@H](CO)[C@@H](O)[C@H](O)[C@H]3O)cc(O)c12 | 85.5%
* COc1ccc(-c2cc(=O)c3c(O)cc(O)cc3o2)cc1O[C@@H]1O[C@H](CO)[C@@H](O)[C@H](O)[C@H]1O | 79.4%
* O=c1c(O)c(-c2ccc(O[C@@H]3O[C@H](CO)[C@@H](O)[C@H](O)[C@H]3O)c(O)c2)oc2cc(O)cc(O)c12 [SPIRAEOSIDE] | 95.8%
* O=c1c(O[C@@H]2O[C@H](CO)[C@@H](O)[C@H](O)[C@H]2O)c(-c2ccc(O)c(O)c2)oc2cc(O)cc(O)c12 | 87%

====

ASSAY TEXT: Cytotoxicity against mouse B16-4A5 cells assessed as cell viability at 3 uM after 70 hrs by WST-8 assay relative to control
Format: cell-based
STUDY CONDITIONS: read-out: Activity
// reported viability at 70 h, 3 µM for each item listed
ASSAY METRIC: viability at 70 h, 3 µM (%)

* O=c1cc(-c2ccc(O[C@@H]3O[C@H](CO)[C@@H](O)[C@H](O)[C@H]3O)c(O)c2)oc2cc(O)cc(O)c12 | 105
* COc1ccc(-c2cc(=O)c3c(O)cc(O[C@@H]4O[C@H](CO)[C@@H](O)[C@H](O)[C@H]4O)cc3o2)cc1 | 98.3
* O=c1cc(-c2ccc(O)c(O)c2)oc2cc(O)cc(O)c12 | 102
* COc1ccc(-c2cc(=O)c3c(O)cc(O)cc3o2)cc1O[C@@H]1O[C@H](CO)[C@@H](O)[C@H](O)[C@H]1O | 91.4
* O=c1c(O)c(-c2ccc(O)c(O)c2)oc2cc(O)cc(O)c12 | 103
* O=c1c(O)c(-c2ccc(O[C@@H]3O[C@H](CO)[C@@H](O)[C@H](O)[C@H]3O)c(O)c2)oc2cc(O)cc(O)c12 [SPIRAEOSIDE] | 107
* COc1ccc(-c2oc3cc(O)cc(O)c3c(=O)c2O[C@@H]2O[C@H](CO)[C@@H](O)[C@H](O)[C@H]2O)cc1O | 91.3
* O=c1c(O[C@@H]2O[C@H](CO)[C@@H](O)[C@H](O)[C@H]2O)c(-c2ccc(O)c(O)c2)oc2cc(O)cc(O)c12 | 100
* O=C1CC(c2ccc(O)c(O)c2)Oc2cc(O)cc(O)c21 (racemic) | 101
* O=c1cc(-c2ccc(O)c(O)c2)oc2cc(O[C@@H]3O[C@H](CO)[C@@H](O)[C@H](O)[C@H]3O)cc(O)c12 | 104

====

// reported inhibition for each item listed
TARGET OF ASSAY: Plasminogen (Homo sapiens)
ASSAY TEXT: Inhibition of plasmin (unknown origin) at 100 uM after 18 hrs by arianor mahogany dye-based fibrin plate assay relative to control
ASSAY METRIC: inhibition (%)

- O=c1c(O[C@@H]2O[C@H](CO)[C@@H](O)[C@H](O)[C@H]2O)c(-c2ccc(O)c(O)c2)oc2cc(O)cc(O)c12 [ISOQUERCETIN]: -2.5
- O=c1cc(-c2ccc(O)c(O)c2)oc2cc(O)cc(O)c12 [LUTEOLIN]: 28.7
- COc1ccc(-c2cc(=O)c3c(O)cc(O[C@@H]4O[C@H](CO)[C@@H](O)[C@H](O)[C@H]4O)cc3o2)cc1 [TILIANINE]: -8.1
- O=C1CC(c2ccc(O)c(O)c2)Oc2cc(O)cc(O)c21 (racemic): 20.7
- COc1ccc(-c2cc(=O)c3c(O)cc(O)cc3o2)cc1O[C@@H]1O[C@H](CO)[C@@H](O)[C@H](O)[C@H]1O: 28.5

====

ASSAY TEXT: Cytotoxicity against mouse B16-4A5 cells assessed as cell viability at 1 uM after 70 hrs by WST-8 assay relative to control
Format: cell-based
STUDY CONDITIONS: read-out: Activity
ASSAY METRIC: viability at 70 h, 1 µM (%)

• O=c1cc(-c2ccc(O[C@@H]3O[C@H](CO)[C@@H](O)[C@H](O)[C@H]3O)c(O)c2)oc2cc(O)cc(O)c12 = 99.6
• COc1ccc(-c2cc(=O)c3c(O)cc(O[C@@H]4O[C@H](CO)[C@@H](O)[C@H](O)[C@H]4O)cc3o2)cc1 = 93.2
• O=c1cc(-c2ccc(O)c(O)c2)oc2cc(O)cc(O)c12 = 103
• O=c1c(O)c(-c2ccc(O[C@@H]3O[C@H](CO)[C@@H](O)[C@H](O)[C@H]3O)c(O)c2)oc2cc(O)cc(O)c12 [SPIRAEOSIDE] = 105
• O=c1cc(-c2ccc(O)c(O)c2)oc2cc(O[C@@H]3O[C@H](CO)[C@@H](O)[C@H](O)[C@H]3O)cc(O)c12 = 101
